Numbers sourced from PubChem BioAssay AID2060888.

pIC50 by entry:
# Test system: 695427-040-R-J1-PDC complex spheroid viability;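 also: viability read after seven days of drug exposure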
# Procedure summary: Anticancer human tumor 695427-040-R-J1-PDC patient-derived colon adenocarcinoma cell line growth inhibition [RAS]
# Details: curve of first compound; second compound 0.3 µM
pIC50: −log10 of the molar value.

Some compounds with known pIC50 results, for comparison:
# Compound, pIC50
measured = [
    ("CCN1CCN(Cc2ccc(Nc3ncc(F)c(-c4cc(F)c5nc(C)n(C(C)C)c5c4)n3)nc2)CC1 + CCn1c(-c2cccnc2C(C)OC)c2c3cc(ccc31)N1CCOC(CC(NC(=O)C(C(C)C)N(C)C(=O)C3(F)CCN(C(=O)C#CC(C)(C)N(C)C)CC3)C(=O)N3CCCC(N3)C(=O)OCC(C)(C)C2)C1", "< 6.00"),
    ("CC1(C)CCC(Nc2ncc(C(F)(F)F)c(-c3c[nH]c4c(P(C)(C)=O)c(C#N)ccc34)n2)CN1 (stereo not drawn) + CCn1c(-c2cccnc2C(C)OC)c2c3cc(ccc31)N1CCOC(CC(NC(=O)C(C(C)C)N(C)C(=O)C3(F)CCN(C(=O)C#CC(C)(C)N(C)C)CC3)C(=O)N3CCCC(N3)C(=O)OCC(C)(C)C2)C1", "< 6.52"),
]

The record that follows has no pIC50 shown yet.
Kindly note: 695427-040-R-J1-PDC complex spheroid viability, CC(C)n1nc(-c2ccc3oc(N)nc3c2)c2c(N)ncnc21 + CCn1c(-c2cc(N3CCN(C)CC3)cnc2C(C)OC)c2c3cc(ccc31)-c1csc(n1)CC(NC(=O)C1CC1C)C(=O)N1CCCC(N1)C(=O)OCC(C)(C)C2 , pIC50 value reported: > 9.50
